- System: S. enterica serovar Typhimurium 14 028s phoP knockout
- Assay type: cell-based
- measurement context: broth microdilution, serial twofold dilution in MNMM, 18–20 h at 37 °C with agitation, read by visible turbidity
- Protocol: The antimicrobial activity of the peptides was examined in sterile 96-wells plates (Nunc F96 microtiter plates) in a final volume of 100 μL as follows. […] Inhibition of growth was determined by the visibility of turbidity in comparison to blank with no growth after an incubation of 18–20 h at 37 °C with agitation. Antibacterial activity was expressed as the minimal inhibitory concentration (MIC) in which no growth could be observed. […]
Where a SMILES comes first, the peptide text is derived from it. [ ]: non-standard residue; d: D form. The star is where a group is joined. Octanoyl = CCCCCCCC(=O)*
Catalogue of compounds with associated MIC, phoP-KO

compound | result unit | MIC, phoP-KO
CC(C)C[C@H](NC(=O)[C@H](CCCCN)NC(=O)[C@@H](CC(C)C)NC(=O)[C@@H](CC(C)C)NC(=O)[C@H](CCCCN)NC(=O)[C@@H](N)CCCCN)C(=O)N[C@@H](CC(C)C)C(=O)N[C@H](CC(C)C)C(=O)N[C@@H](CCCCN)C(=O)N[C@H](CC(C)C)C(=O)N[C@@H](CC(C)C)C(=O)N[C@@H](CCCCN)C(N)=O [D,L-K5L7] (H-KK[dL][dL]KLL[dL]K[dL]LK-NH2; N-terminus assumed) | µM | 1.56
CCCCCCCC(=O)N[C@@H](CCCCN)C(=O)N[C@@H](CCCCN)C(=O)N[C@H](CC(C)C)C(=O)N[C@H](CC(C)C)C(=O)N[C@@H](CCCCN)C(=O)N[C@@H](CC(C)C)C(=O)N[C@@H](CC(C)C)C(=O)N[C@H](CC(C)C)C(=O)N[C@@H](CCCCN)C(=O)N[C@H](CC(C)C)C(=O)N[C@@H](CC(C)C)C(=O)N[C@@H](CCCCN)C(N)=O [C8-D,L-K5L7] (Octanoyl-KK[dL][dL]KLL[dL]K[dL]LK-NH2) | µM | 3.125
CC(C)C[C@H](NC(=O)[C@H](CC(C)C)NC(=O)[C@@H](CCCCN)NC(=O)[C@H](CC(C)C)NC(=O)[C@H](CC(C)C)NC(=O)[C@H](CCCCN)NC(=O)[C@@H](CCCCN)NC(=O)[C@@H](CC(C)C)NC(=O)[C@H](CC(C)C)NC(=O)[C@@H](CCCCN)NC(=O)[C@H](CCCCN)NC(=O)[C@H](CC(C)C)NC(=O)[C@@H](CC(C)C)NC(=O)[C@H](CCCCN)NC(=O)[C@@H](N)CC(C)C)C(N)=O [D,L-K6L9] (H-LK[dL]LK[dK]L[dL][dK]KLL[dK]LL-NH2; N-terminus assumed) | µM | 0.39
CC(C)C[C@H](NC(=O)[C@H](CC(C)C)NC(=O)[C@@H](Cc1c[nH]cn1)NC(=O)[C@H](CC(C)C)NC(=O)[C@H](CC(C)C)NC(=O)[C@H](Cc1c[nH]cn1)NC(=O)[C@@H](Cc1c[nH]cn1)NC(=O)[C@@H](CC(C)C)NC(=O)[C@H](CC(C)C)NC(=O)[C@@H](Cc1c[nH]cn1)NC(=O)[C@H](Cc1c[nH]cn1)NC(=O)[C@H](CC(C)C)NC(=O)[C@@H](CC(C)C)NC(=O)[C@H](Cc1c[nH]cn1)NC(=O)[C@@H](N)CC(C)C)C(N)=O [D,L-H6L9] (H-LH[dL]LH[dH]L[dL][dH]HLL[dH]LL-NH2; N-terminus assumed) | µM | 50
